Molecular target: human C5 (human)
Assay: SPR, pH 7.4, 37C
parameterMeasured: Kd (nM)

* CFA0599 (antibody, V domains shown) VH: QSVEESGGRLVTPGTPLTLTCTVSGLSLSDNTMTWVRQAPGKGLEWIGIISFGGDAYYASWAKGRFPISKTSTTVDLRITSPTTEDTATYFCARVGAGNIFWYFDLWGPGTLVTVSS VL: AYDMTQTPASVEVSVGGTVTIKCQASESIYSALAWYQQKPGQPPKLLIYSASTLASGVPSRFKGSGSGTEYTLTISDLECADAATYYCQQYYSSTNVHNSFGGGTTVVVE | 5.93
* CFA0366 (antibody, V domains shown) VH: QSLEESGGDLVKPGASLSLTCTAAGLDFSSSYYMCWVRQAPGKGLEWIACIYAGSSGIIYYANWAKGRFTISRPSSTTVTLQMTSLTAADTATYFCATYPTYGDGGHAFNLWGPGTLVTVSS VL: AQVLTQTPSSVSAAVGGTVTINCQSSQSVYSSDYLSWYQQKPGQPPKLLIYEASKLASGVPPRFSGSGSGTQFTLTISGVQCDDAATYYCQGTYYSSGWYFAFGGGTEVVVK | 8.99
